Readings of activity change, negative = inhibition for the listed compounds
- PROTOCOL_DESCRIPTION: HIV-1 AD8 envelope cell-cell fusion blockers – cherry-pick, dose response (AID 652062)
- CONDITION_SET: HeLa-AD8 Env / CEM-CCR5 cell fusion, luciferase; at 35 µM (top of the series) unless noted
About 1,100 (79%) of roughly 1,400 compounds were called active. So high a share suggests a set chosen from earlier hits. The list is a sample of the results. Measured potencies and affinities stand elsewhere.

IN: For the compound C[C@@H]1CN([C@@H](C)CO)C(=O)c2cccc(NC(=O)c3ccc(-c4nccs4)cc3)c2O[C@H]1CN(C)CC1CC1 , give its reported activity change, negative = inhibition.
OUT: 28.5%

Continuing:
IN: For the compound COc1ccccc1CNC(=O)C[C@H]1C[C@@H]2c3cc(NC(=O)c4cccnc4)ccc3O[C@@H]2[C@@H](CO)O1 , give its reported activity change, negative = inhibition.
OUT: 64.7%

IN: For the compound C[C@H](CO)N1C[C@H](C)[C@@H](CN(C)Cc2ccncc2)Oc2cc(C3=CCCCC3)ccc2S1(=O)=O , give its reported activity change, negative = inhibition.
OUT: 57.2% [at 15 µM]

IN: For the compound CCCCCCOc1ccc(OC(=O)c2ccncc2)cc1 , give its reported activity change, negative = inhibition.
OUT: -6.3%

---

Readings of activity change, negative = inhibition for the listed compounds
- PROTOCOL_DESCRIPTION: HIV-1 AD8 envelope cell-cell fusion blockers – cherry-pick, dose response (AID 652062)
- CONDITION_SET: HeLa-AD8 Env / CEM-CCR5 cell fusion, luciferase; at 35 µM (top of the series) unless noted
Out of some 1,400 compounds screened, about 1,100 (79%) were called active. So high a share suggests a set chosen from earlier hits. Not all results are given here. Potency and affinity values are given separately.
Write it as a number; the unit % goes unstated.

Record excerpt, results attached:
IN: For the compound Cc1cc(C(=O)N2CCC(C(=O)O)CC2)c(C(F)(F)F)o1 , give its reported activity change, negative = inhibition.
OUT: -10.2

IN: For the compound COc1cc(-c2cc(OC)c(O)c(OC)c2)cc(OC)c1O , give its reported activity change, negative = inhibition.
OUT: 27.9

IN: For the compound C=CCOc1c(Br)cc(CNc2ccc(NC(=O)C(C)C)c(OC)c2)cc1OC , give its reported activity change, negative = inhibition.
OUT: 129

IN: For the compound Cc1ccc(-c2ccc3c(c2)O[C@@H](CN(C)Cc2cccnc2)[C@H](C)CN([C@H](C)CO)S3(=O)=O)cc1 , give its reported activity change, negative = inhibition.
OUT: -56.7

Continuing:
IN: For the compound CCCC(=O)Nc1ccc2c(c1)C(=O)N(C)C[C@@H](OC)[C@@H](C)CN(Cc1nccs1)[C@@H](C)CO2 , give its reported activity change, negative = inhibition.
OUT: 33.3

IN: For the compound N#C[C@H]1[C@@H](c2ccccc2/C=C/c2ccccc2)[C@@H](CO)N1S(=O)(=O)c1cccc(F)c1 , give its reported activity change, negative = inhibition.
OUT: 108

IN: For the compound N#C[C@@H]1[C@H](c2ccc(-c3ccccc3F)cc2)[C@@H](CO)N1C(=O)c1ccccn1 , give its reported activity change, negative = inhibition.
OUT: -32.3

IN: For the compound C[C@H]1CN([C@@H](C)CO)C(=O)c2cc(NS(C)(=O)=O)ccc2O[C@@H]1CN(C)Cc1ccc(Cl)c(Cl)c1 , give its reported activity change, negative = inhibition.
OUT: 37.5

---

- PROTOCOL_DESCRIPTION: HIV-1 AD8 envelope cell-cell fusion blockers – cherry-pick, dose response (AID 652062)
- CONDITION_SET: HeLa-AD8 Env / CEM-CCR5 cell fusion, luciferase; at 35 µM (top of the series) unless noted
The whole screen tested about 1,400 compounds, of which about 1,100 (79%) were called active. The set was probably picked from earlier hits. Only a sample is shown. Potency and affinity values are given separately.
Readings of activity change, negative = inhibition for the listed compounds
Write it as a number; the unit % goes unstated.

Record excerpt, results attached:
IN: For the compound Cc1ccc(S(=O)(=O)N[C@@H]2CC[C@H](CCNC(=O)c3ccccc3F)O[C@H]2CO)cc1 , give its reported activity change, negative = inhibition.
OUT: 23.6

IN: For the compound Cc1cc(C)nc(/N=C(\N)Nc2ccc(CC(=O)OC(C)C)cc2)n1 , give its reported activity change, negative = inhibition.
OUT: 39.8

IN: For the compound COc1ccc(CCN2C(=O)c3[nH]nc(-c4ccccc4O)c3C2c2cccc(O)c2)cc1OC (centres undefined) , give its reported activity change, negative = inhibition.
OUT: 4.61

IN: For the compound COc1ccccc1-c1ccc2c(c1)O[C@H](CN(C)S(=O)(=O)c1ccccc1)[C@H](C)CN([C@H](C)CO)S2(=O)=O , give its reported activity change, negative = inhibition.
OUT: 18.5

IN: For the compound CC1CCN(C(=O)c2ncn3c2C(=O)NC[C@@H]3C)CC1 , give its reported activity change, negative = inhibition.
OUT: 15.1

Continuing:
IN: For the compound Cc1ccc(S(=O)(=O)N(C)C[C@H]2Oc3cc(-c4cccc(F)c4)ccc3S(=O)(=O)N([C@H](C)CO)C[C@H]2C)cc1 , give its reported activity change, negative = inhibition.
OUT: -33.7

IN: For the compound COc1ccc(OC)c(CN2C(=O)c3ccccc3C2c2nnnn2-c2c(C)cccc2C)c1 (centres undefined) , give its reported activity change, negative = inhibition.
OUT: -4.67

IN: For the compound O=C(Cc1ccccc1)N[C@@H]1C=C[C@H](CC(=O)N2CCCCC2)O[C@@H]1CO , give its reported activity change, negative = inhibition.
OUT: -10.8

IN: For the compound O=c1[nH]c(=O)n([C@H]2C[C@H](O)[C@@H](CO)O2)cc1F , give its reported activity change, negative = inhibition.
OUT: -10.2

---

Readings of activity change, negative = inhibition for the listed molecules
- PROTOCOL_DESCRIPTION: HIV-1 AD8 envelope cell-cell fusion blockers – cherry-pick, dose response (AID 652062)
- CONDITION_SET: HeLa-AD8 Env / CEM-CCR5 cell fusion, luciferase; at 35 µM (top of the series) unless noted
In all, about 1,400 compounds went through this assay and about 1,100 (79%) were called active. The set was probably picked from earlier hits. Not all results are given here. Results with a measured potency or affinity are listed apart.
Write it as a number; the unit % goes unstated.

IN: For the molecule C[C@@H]1CN([C@@H](C)CO)C(=O)c2cc(NC(=O)c3ccncc3)ccc2O[C@@H]1CN(C)Cc1ccncc1 , give its reported activity change, negative = inhibition.
OUT: 34.4

IN: For the molecule C[C@@H]1CN([C@@H](C)CO)C(=O)c2cc(NC(=O)c3ccccc3)ccc2O[C@@H](C)CCCCO[C@H]1CN(C)Cc1ccc(C(=O)O)cc1 , give its reported activity change, negative = inhibition.
OUT: 52.2

IN: For the molecule CC1(C)N=C(N)N=C(N)N1CCCCc1ccccc1 , give its reported activity change, negative = inhibition.
OUT: 3.6

Shifting focus to the molecule that follows.
IN: For the molecule C=C(C)CN(CC)c1nc(N)c2c(N)nc3c(c2c1C#N)CC(=O)N3C12CC3CC(CC(C3)C1)C2 , give its reported activity change, negative = inhibition.
OUT: 27.3

---

- PROTOCOL_DESCRIPTION: HIV-1 AD8 envelope cell-cell fusion blockers – cherry-pick, dose response (AID 652062)
- CONDITION_SET: HeLa-AD8 Env / CEM-CCR5 cell fusion, luciferase; at 35 µM (top of the series) unless noted
The campaign covered roughly 1,400 compounds. About 1,100 (79%) were called active. So high a share suggests a set chosen from earlier hits. These entries were drawn from the full list. Measured potencies and affinities stand elsewhere.
Readings of activity change, negative = inhibition for the listed compounds
Write it as a number; the unit % goes unstated.

IN: For the compound Cn1cc(S(=O)(=O)N2CCOCC2)cc1C(=O)Nc1cccc(Cl)c1 , give its reported activity change, negative = inhibition.
OUT: -9.96

IN: For the compound COc1ccc(S(=O)(=O)N2CCCCC2)cc1NC(=O)CN(Cc1ccco1)Cc1ccco1 , give its reported activity change, negative = inhibition.
OUT: -14.6

IN: For the compound C[C@@H]1CN([C@@H](C)CO)S(=O)(=O)c2ccc(-c3ccc(F)cc3)cc2O[C@H]1CN(C)C(=O)C1CCCCC1 , give its reported activity change, negative = inhibition.
OUT: -27.8

IN: For the compound CCOC(=O)C1=C(C)N=C2c3ccccc3C(=O)C2C1c1ccc(Cl)cc1 (stereo unspecified) , give its reported activity change, negative = inhibition.
OUT: -84.7

IN: For the compound Cc1ccc(S(=O)(=O)N(C)C[C@H]2Oc3cc(C4=CCCC4)ccc3S(=O)(=O)N([C@H](C)CO)C[C@H]2C)cc1 , give its reported activity change, negative = inhibition.
OUT: -41.2

Continuing:
IN: For the compound CS(=O)(=O)N1CCN(c2ccccc2NC(=O)C(c2ccccc2)c2ccccc2)CC1 , give its reported activity change, negative = inhibition.
OUT: 38.4

IN: For the compound CCOC(=O)C(C)Oc1cccc2c(=O)n(CC(=O)NCCc3ccc(OC)c(OC)c3)ccc12 (stereo unspecified) , give its reported activity change, negative = inhibition.
OUT: 3.5

IN: For the compound CCC(=O)N(C)C[C@H]1Oc2cc(/C=C/c3ccccc3)ccc2S(=O)(=O)N([C@@H](C)CO)C[C@H]1C , give its reported activity change, negative = inhibition.
OUT: -29.3

IN: For the compound CCC(=O)Nc1ccc2c(c1)C(=O)N(C)C[C@@H](OC)[C@H](C)CN(C(=O)CC)[C@@H](C)CO2 , give its reported activity change, negative = inhibition.
OUT: 44.7

IN: For the compound Cc1ccccc1-n1c(=O)c2ccccc2n2cnnc12 , give its reported activity change, negative = inhibition.
OUT: 40.3

IN: For the compound CCOC(=O)c1ccc(NC2c3ncccc3C(=O)N2Cc2ccc(F)cc2)cc1 (stereo unspecified) , give its reported activity change, negative = inhibition.
OUT: -27

IN: For the compound COc1ccc(S(=O)(=O)N(C)C[C@H]2Oc3cc(C4=CCCC4)ccc3S(=O)(=O)N([C@@H](C)CO)C[C@H]2C)cc1 , give its reported activity change, negative = inhibition.
OUT: 5.51

IN: For the compound C[C@@]12C(=O)N(Cc3ccc(F)cc3)CC(=O)N1[C@H]1c3cc(Cl)ccc3OC[C@@H]1[C@@H]2c1ccccc1 , give its reported activity change, negative = inhibition.
OUT: 19.5

IN: For the compound CN1CCc2ccccc2Cc2[nH]c3ccccc3c2CC1 , give its reported activity change, negative = inhibition.
OUT: -17.8

IN: For the compound Cc1ccc2c(c1)c1c3n2CCN(CCC#N)C3CCC1 (stereo unspecified) , give its reported activity change, negative = inhibition.
OUT: 81.2

IN: For the compound CC(NC(=O)c1ccccc1NC(=O)CN1CCc2ccccc2C1)c1ccccc1 (stereo unspecified) , give its reported activity change, negative = inhibition.
OUT: -3.06

IN: For the compound CC(=O)OC1c2ccccc2C(=O)N1c1ccccc1C (stereo unspecified) , give its reported activity change, negative = inhibition.
OUT: -15.7

Values were extracted from PubChem BioAssay AID652062.
